B1: TMEM106C (parent)
chain: YVTTNVSLIPPRSEQLVNFTGKAE

Variants of: B1
Assay: protein stability index of a GFP-peptide fusion (GPS, HEK-293T) (PSI 1-6); higher = more stable;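 further: lentivirally expressed fusions sorted by FACS into six bins by GFP to DsRed ratio, PSI derived from sequencing read proportions per bin multiplied by bin number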
Conditions: c terminus: a fixed tail appended

# chainSequence, protein stability index
data = [
    ("YVTDNVSLIPPRSEQLVNFTGKAE", 2.03),
    ("YVSTNVSLIPPRSEQLVNFTGKAE", 1.98),
    ("YVTTNVSLIPPQSEQLVNFTGKAE", 2.1),
    ("YVTTNVSLIPPLSEQLVNFTGKAE", 1.48),
    ("YVTTNVLLIPPRSEQLVNFTGKAE", 2.45),
    ("YVTTNVSLIPPRSEQLVNFTGKNE", 1.82),
    ("YVTTNVSLIPPRSEQLGNFTGKAE", 1.98),
    ("YVFTNVSLIPPRSEQLVNFTGKAE", 2.58),
    ("YVTTNVSLIPPRSENLVNFTGKAE", 1.55),
    ("YVTTNVSLIPPRSEQLVNFTGHAE", 1.96),
    ("YVTTNVSLIPPRSEQMVNFTGKAE", 2.02),
]
